# System: Botrytis cinerea
# test: Fungicidal activity, fungicide growth rate method, BC
# Format: cell-based
# test context: Botrytis cinerea, 50 μg/mL; read-out: fungicidal activity (growth inhibition rate), BC
# Lookup of reported inhibition at 50 µg/mL keyed by entry

Example results:
| compound | inhibition at 50 µg/mL |
| --- | --- |
| C=CC[C@@H]1C[C@]2(O[Si](C)(C)CC=C)CCO[C@@]23C[C@H](O[Si](C)(C)CC=C)CC[C@H]13 | > 50% |
| C=CC[C@@H]1C[C@]2(O)CCO[C@@]23C[C@@H](Cl)[C@H](O)C[C@H]13 | 14% |
| C=CC[C@@H]1C[C@]2(OC(C)=O)C[C@H](OC(C)=O)O[C@@]23C[C@H]2O[C@H]2C[C@H]13 | 41% |
| C=CC[C@@H]1C[C@]2(O)CC(=O)O[C@@]23C[C@@H](Cl)[C@H](O)C[C@H]13 | > 50% |
| C=C(C)[C@@H]1C[C@]2(O)CC(=O)O[C@@]23CC=CC[C@H]13 | 25% |
| O=C1C[C@@]2(O)CC[C@H]3CC=CC[C@@]32O1 | 25% |
| C=CC[C@@H]1C[C@]2(O)CCO[C@@]23C[C@H](O)CC[C@H]13 | 23% |
| C=CC[C@@H]1C[C@]2(O[Si](C)(C)CC=C)CCO[C@@]23CC[C@H](O[Si](C)(C)CC=C)C[C@@H]13 | > 50% |
| C=CC[C@@H]1C[C@@]2(OC(C)=O)C[C@@H](CC=C)[C@H]3C[C@@H]4O[C@@H]4C[C@@]32O1 | > 50% |
| C=CC[C@@H]1C[C@]2(O)CC(=O)O[C@@]23C[C@H]2O[C@H]2C[C@H]13 | > 50% |

Prompt: inhibition at 50 µg/mL of C=C(C)C1CC(=O)[C@@]2(O)CC=CC[C@H]12 (stereo partly drawn) on Botrytis cinerea?
Completion: 36%

Prompt: Could you do the same for `C=CC[C@@H]1C[C@]2(O)CC(=O)O[C@@]23CC=CC[C@H]13` , please?
Completion: 49%

Prompt: Could you do the same for `C=CC[C@@H]1C[C@@]2(O)C[C@@H](CC=C)[C@H]3C[C@@H](O)CC[C@@]32O1` , please?
Completion: 36%

Prompt: Could you do the same for `CC(=O)O[C@@]12C[C@H]3CC=CC[C@@]1(O3)[C@@H]1CC=CC[C@@H]1C2` , please?
Completion: 34%

Prompt: Could you do the same for `C=CC[C@@H]1C[C@]2(O)CCO[C@@]23C[C@@H]2O[C@@H]2C[C@H]13` , please?
Completion: 36%

Prompt: Could you do the same for `C=CC[C@@H]1C[C@]2(O)CCO[C@@]23CC=CC[C@H]13` , please?
Completion: 39%

---

# Lookup of reported inhibition at 50 µg/mL keyed by entry
# System: Cercospora arachidicola
# test: Fungicidal activity, fungicide growth rate method, CA
# Format: cell-based
# test context: Mycosphaerella arachidis, 50 μg/mL; read-out: fungicidal activity (growth inhibition rate), CA
Give just the number in %; leave the unit off.

Example results:
| molecule | experimental system | measured |
| --- | --- | --- |
| CCOC(=O)C[C@@H]1C[C@]2(O)CC(=O)O[C@@]23CC=CC[C@H]13 | Cercospora arachidicola | 27 |
| O=C1C[C@@]2(O)CC[C@H]3C[C@@H]4O[C@@H]4C[C@@]32O1 | Cercospora arachidicola | 14 |
| CCOC(=O)C(C(=O)OCC)C1CC(=O)[C@@]2(O)CC=CC[C@H]12 (stereo partly shown) | Cercospora arachidicola | 24 |
| O=C1C[C@@]2(O)CC[C@H]3C[C@@H](O)[C@@H](Cl)C[C@@]32O1 | Cercospora arachidicola | 38 |
| C=CC[C@@H]1C[C@]2(O)CC(=O)O[C@@]23C[C@H]2O[C@H]2C[C@H]13 | Cercospora arachidicola | 8 |
| C=CC[C@@H]1C[C@]2(OC(C)=O)C[C@H](OC(C)=O)O[C@@]23CC=CC[C@H]13 | Cercospora arachidicola | 27 |

Prompt: inhibition at 50 µg/mL of `C=CC[C@@H]1C[C@]2(OC(C)=O)C[C@H](OC(C)=O)O[C@@]23C[C@H]2O[C@H]2C[C@H]13` on Cercospora arachidicola?
Completion: 24

---

# Test system: Alternaria solani
# test: Fungicidal activity, fungicide growth rate method, AS
# Type: cell-based
# test context: Alternaria solani, 50 μg/mL; read-out: fungicidal activity (growth inhibition rate), AS
Decision: inhibition at 50 µg/mL compared against 10%; not below it gives y, below it gives n.

Please review the entries below; each comes with its answer.
| compound | class label |
| --- | --- |
| C=CC[C@@H]1C[C@]2(O)CCO[C@@]23C[C@H](O)CC[C@H]13 [Zyj07-32] | y |
| C=CC[C@@H]1C[C@@]2(O)C[C@@H](CC=C)[C@H]3CC=CC[C@@]32O1 [Zyj07-98] | y |
| CCOC(=O)C1C(=O)O[C@]23CC=CC[C@@H]2CC[C@]13O (stereo partly drawn) [Zyj07-95] | y |
| C=CC[C@@H]1CC2=CC(=O)O[C@@]23CC=CC[C@H]13 [Zyj07-92] | y |
| O=C1C[C@@]2(O)CC[C@H]3C[C@@H]4O[C@@H]4C[C@@]32O1 [Zyj07-102] | n |

Prompt: Hello, I need to know if C=CC[C@@H]1C[C@@]2(OC(C)=O)C[C@@H](CC=C)[C@H]3C[C@H]4O[C@H]4C[C@@]32O1 [Zyj07-67-1] has measured inhibition at 50 µg/mL not below 10%. Thanks!
Completion: n

Prompt: Could you do the same for C=CC[C@@H]1C[C@]2(O)CCO[C@@]23CC[C@H](O)C[C@H]13 [Zyj07-33] , please?
Completion: y

Prompt: Could you do the same for C=CC[C@@H]1C[C@]2(O)CCO[C@@]23C[C@@H](Cl)[C@H](O)C[C@H]13 [Zyj07-100] , please?
Completion: y

Prompt: Could you do the same for C=CC[C@@H]1C[C@]2(O[Si](C)(C)CC=C)CCO[C@@]23C[C@H](O[Si](C)(C)CC=C)CC[C@H]13 [Zyj07-46] , please?
Completion: n

Prompt: Could you do the same for CC(C)(C)OO[C@@H]1CC(=O)[C@@]2(O)CC=CC[C@H]12 [Zyj06-92-2] , please?
Completion: y

Prompt: Could you do the same for CCOC(=O)C1C(=O)O[C@]23CC=CC[C@@H]2[C@H](OOC(C)(C)C)C[C@]13O (stereo partly drawn) [Zyj06-127] , please?
Completion: n

Prompt: Could you do the same for C=CC[C@@H]1C[C@]2(O)CCO[C@@]23C[C@H]2O[C@H]2C[C@H]13 [Zyj07-31-2] , please?
Completion: y

Prompt: Could you do the same for O=C1CCC23CC=CCC12O3 (stereo not drawn) [Zyj06-39] , please?
Completion: y

Prompt: Could you do the same for O=C1C[C@@]2(O)CC[C@H]3CC=CC[C@@]32O1 [Zyj07-96] , please?
Completion: y

Prompt: Could you do the same for C=CC[C@@H]1C[C@@]2(OC(C)=O)C[C@@H](CC=C)[C@H]3C[C@@H]4O[C@@H]4C[C@@]32O1 [Zyj07-67-2] , please?
Completion: n

Prompt: Could you do the same for C=CC[C@@H]1C[C@]2(O[Si](C)(C)CC=C)CCO[C@@]23CC[C@H](O[Si](C)(C)CC=C)C[C@@H]13 [Zyj07-48] , please?
Completion: n

Prompt: Could you do the same for C=CC[C@@H]1C[C@]2(O)CC(O)O[C@@]23CC=CC[C@H]13 (stereo partly drawn) [Zyj07-29] , please?
Completion: n

---

# System: wheat Gibberella zeae
# test: microbe, parasite or virus in culture
# Type: cell-based
# test context: Fusarium graminearum, read-out: fungicidal activity (growth inhibition rate), GZ, 50 μg/mL
measure name: inhibition at 50 µg/mL (%)
Give just the number in %; leave the unit off.

Example results:
| compound | measured |
| --- | --- |
| C=CC[C@@H]1C[C@]2(O)CCO[C@@]23CC[C@H](O)C[C@H]13 | 27 |
| C=CC[C@@H]1CC(=O)[C@@]2(O)CC=CC[C@H]12 | 0 |
| C=CC[C@@H]1C[C@]2(O)CC(=O)O[C@@]23C[C@H]2O[C@H]2C[C@H]13 | 14 |

Prompt: Field request: inhibition at 50 µg/mL | item: `C=CC[C@@H]1C[C@]2(O)CCO[C@@]23CC=CC[C@H]13`
Completion: 3

Prompt: Could you do the same for `C=CC[C@@H]1C[C@]2(O)CC(=O)O[C@@]23C[C@@H](Cl)[C@H](O)C[C@H]13` , please?
Completion: 43

Prompt: Could you do the same for C=C(C)C1CC(=O)[C@@]2(O)CC=CC[C@H]12 (some centres unmarked) , please?
Completion: 27
